test system: MDA-MB-435 melanoma; experiment: NCI-60 one-dose screen, 48 h (100 = growth as untreated, 0 = no growth, -100 = all killed); details: 10 µM
About 83,000 compounds went through this panel and 20% of them were active in at least one assay; those are over-represented in the sample as a whole.
READOUT: growth (%)
Give bare numbers, in %.

COMPOUND	UNIT TAG	growth
COc1cc(C(=O)N2CCN(c3ccccc3OC)CC2)c(N)cc1OCCCN1CCN(c2ccccc2OC)CC1	%	101
CC1=C(N2CCOCC2)C(N2CCOCC2)=C(C)C(=O)C1=O	%	103
COc1ccc(-c2nn(-c3cccc(NC(=O)Nc4ccccc4)c3)cc2-c2ccncc2)cc1Cl	%	-66.5
Cc1ccc(Nc2cc(C)nc(NCCCNc3ccnc4cc(Cl)ccc34)n2)cc1	%	-90
O=C(Nc1ccncc1)C(=O)c1cn(S(=O)(=O)c2ccc(F)cc2)c2ccccc12	%	-20.3
C=C(NC(=O)C(=C)NC(=O)c1csc(C2=NC3c4csc(n4)C4NC(=O)c5csc(n5)C(C(C)(O)C(C)O)NC(=O)C5CSC(=N5)/C(=C/C)NC(=O)C(C(C)O)NC(=O)c5csc(n5)C3(CC2)NC(=O)C(C)NC(=O)C(=C)NC(=O)C(=C)NC(=O)C(C(C)C)NC2C=Cc3c(C(C)O)cc(nc3C2O)C(=O)OC4C)n1)C(N)=O (configuration not stated)	%	-65.2

Proceeding to the next compound to report its growth.
Sample `CS(=O)(=O)Nc1cccc(-c2cc(-c3ccccc3Cl)c(C#N)c(N)n2)c1` — what was its growth?
-45.8

Just for reference, PubChem BioAssay (NCI) is where these values come from.
